testedTarget: the molecule itself
procedureText: SEC-MALS
endpointName: stoichiometry N

{"protein": "mouse pyridoxal kinase (mPDXK) V41W/F43R double mutant (enzyme, UniProt Q8K183 1-312, looked up) MEGECRVLSIQSHVVRGYVGNRAAMFPLQVLGFEVDAVNSWQRSNHTGYAHWKGQVLKSQELHELYEGLKVNDVNKYDYVLTGYTRDKSFLAMVVDIVRELKQQNSRLVYVCDPVMGDKWNGEGSMYVPQDLLPVYRDKVVPVADIITPNQFEAELLSGRKIHSQEEAFEVMDMLHCMGPDTVVITSSDLPSSQGSDYLIALGSQRMRKPDGSTVTQRIRMEMRKVEAVFVGTGDLFAAMLLAWTHKHPDNLKVACEKTVSAMQHVLQRTIRCAKAEAGEGQKPSPAQLELRMVQSKRDIEDPEIVVQATVL", "endpointName": "stoichiometry N", "reportedMeasurement": 2}

Inquiry: Any idea what its stoichiometry N is? The protein is mouse pyridoxal kinase (mPDXK) F43R (enzyme, UniProt Q8K183 1-312, looked up) MEGECRVLSIQSHVVRGYVGNRAAMFPLQVLGFEVDAVNSVQRSNHTGYAHWKGQVLKSQELHELYEGLKVNDVNKYDYVLTGYTRDKSFLAMVVDIVRELKQQNSRLVYVCDPVMGDKWNGEGSMYVPQDLLPVYRDKVVPVADIITPNQFEAELLSGRKIHSQEEAFEVMDMLHCMGPDTVVITSSDLPSSQGSDYLIALGSQRMRKPDGSTVTQRIRMEMRKVEAVFVGTGDLFAAMLLAWTHKHPDNLKVACEKTVSAMQHVLQRTIRCAKAEAGEGQKPSPAQLELRMVQSKRDIEDPEIVVQATVL
Reply text: 2

Where do the numbers come from? From paper doi:10.1101/2020.04.05.026310.
